# Tested on: U2OS
# measurement_description: cell viability relative to DMSO; higher = less toxic
# assay_setup: 72 h; 1000 nM
Counter-ions that a name gives are not always drawn.
experimental_readout: cell viability
Give me the value, and tack the unit on after it.

// each compound listed below needs its cell viability
1. NC1=N[C@@]2(c3cc(NC(=O)c4ccc(F)cn4)ccc3F)COC[C@H]2CS1
2. N#Cc1c(Oc2ccc(F)c(NC(=O)Cc3cccc(C(F)(F)F)c3)c2)ccc2nc(NC(=O)C3CC3)sc12
3. C1CCC(/N=C(\NC23CC4CC(CC(C4)C2)C3)N2CCOCC2)CC1
4. NC(=O)c1cnc(N[C@@H]2CCCC[C@@H]2N)nc1Nc1cccc(-n2nccn2)c1
5. CCc1cc2c(cc1N1CCC(N3CCOCC3)CC1)C(C)(C)c1[nH]c3cc(C#N)ccc3c1C2=O
6. COc1cc(NS(C)(=O)=O)ccc1Nc1c2ccccc2nc2ccccc12
7. Cc1coc2c1C(=O)C(=O)c1c-2ccc2c(C)cccc12
8. CN(C)CCOc1ccc(/C(=C(/CCCl)c2ccccc2)c2ccccc2)cc1 [Toremifene citrate]

Marked response:
["98.4%", "99%", "98.6%", "93.9%", "95.9%", "96.9%", "93.9%", "99%"]

// each compound listed below needs its cell viability
1. NNC(=O)CSc1nc2scc(-c3ccccc3)c2c(=O)n1-c1ccccc1
2. O=[N+]([O-])c1cn2c(n1)OC[C@@H](OCc1ccc(-c3ccc(OC(F)(F)F)cc3)nc1)C2
3. COc1cc(N)c(Cl)cc1C(=O)NC1CN2CCC1CC2 (centres undefined) [zacopride]
4. c1ccc2c(CCNc3ccc(Nc4ccncc4)cc3)c[nH]c2c1

Marked response:
103%
100%
98.3%
100%

// each compound listed below needs its cell viability
1. C[C@H]1O[C@@H](O[C@H]2CC[C@@]3(C)[C@H](CC[C@@H]4[C@@H]3C[C@@H](O)[C@]3(C)[C@@H](C5=CC(=O)OC5)CC[C@]43O)C2)C[C@H](O)[C@@H]1O[C@H]1C[C@H](O)[C@H](O[C@H]2C[C@H](O)[C@H](O[C@@H]3O[C@H](CO)[C@@H](O)[C@H](O)[C@H]3O)[C@@H](C)O2)[C@@H](C)O1 [deslanoside]
2. COc1cc(N2CCC(N3CCN(C)CC3)CC2)ccc1Nc1ncnc(Nc2ccccc2S(=O)(=O)C(C)C)n1

Marked response:
["5.9%", "98.5%"]

// each compound listed below needs its cell viability
1. Nc1nc(F)nc2c1ncn2[C@@H]1O[C@H](CO)[C@@H](O)[C@@H]1O
2. N#Cc1c[nH]c2c(C(=O)N3CCN(CCc4ccc(F)cc4)CC3)cccc12
3. COc1cc(C)[nH]c(=O)c1CNC(=O)c1c(C)n([C@H](C)C2CCOCC2)c2ccccc12
4. O=C(O)Cc1ccc2c(c1)C(=O)c1ccccc1CO2
5. COc1cc2c(NC3CCN(C4CCCCC4)CC3)nc(N3CCCN(C(C)C)CC3)nc2cc1OCCCN1CCCCC1
6. COC(=O)c1sccc1S(=O)(=O)Nc1ccc(Nc2ccccc2)cc1OC

Marked response:
1. 102%
2. 104%
3. 102%
4. 98.3%
5. 97%
6. 95.5%
